For Coagulation factor X (Homo sapiens, UniProt P00742), measured Ki is reported for the entries below.
State the answer as a number, implicitly in nM.

Input line: Query: Ki; subject: C[N+](C)(C)c1ccc(CNC(=O)c2cc3cc(N)ccc3n2Cc2cccc(C(=N)N)c2)cc1
Output line: 60

Input line: Also CN(C)c1ccc(CNC(=O)c2cn(Cc3cccc(C(=N)N)c3)c3ccccc23)cc1 ?
Output line: 2190

Input line: Here is the next molecule: C[n+]1ccc(CNC(=O)c2cc3c(O)cccc3n2Cc2cccc(C(=N)N)c2)c2ccccc21
Output line: 50

Input line: And then CN(C)c1ccc(CNC(=O)c2cc3cc(F)ccc3n2Cc2cccc(C(=N)N)c2)cc1 , what is it?
Output line: 3520

Input line: Input C[N+](C)(C)c1ccc(CNC(=O)c2cc3cc(Cl)ccc3n2Cc2cccc(C(=N)N)c2)cc1
Output line: 140

Input line: Moving on to COc1ccc2c(c1)cc(C(=O)NCc1ccc([N+](C)(C)C)cc1)n2Cc1cccc(C(=N)N)c1
Output line: 94

Input line: Please answer likewise for C[n+]1ccc(CNC(=O)c2cc3ccccc3n2Cc2ccc(C(=N)N)cc2)cc1
Output line: 600

Input line: Please do the same for COC(=O)c1cccc(CNC(=O)c2cc3c(O)cccc3n2Cc2cccc(C(=N)N)c2)c1 as well.
Output line: 2040

Input line: Now try Cc1cccc2c1cc(C(=O)NCc1ccc(N(C)C)cc1)n2Cc1cccc(C(=N)N)c1 .
Output line: 1310

Input line: Next: Cc1cccc2c1cc(C(=O)NCC1CCN(C(=N)N)CC1)n2Cc1cccc(C(=N)N)c1
Output line: 25

Continuing:
Input line: Data request, read-out Ki, for N=C(N)c1cccc(Cn2c(C(N)=O)cc3ccccc32)c1
Output line: 5650

Input line: // next record C[N+](C)(C)c1ccc(CNC(=O)c2cc3ccccc3n2Cc2cccc(C(=N)N)c2)cc1
Output line: 400

Input line: What would you report for Cc1c(F)ccc2c1cc(C(=O)NCc1ccc([N+](C)(C)Cc3ccccc3)cc1)n2Cc1cccc(C(=N)N)c1 ?
Output line: 245

----------
target: Prothrombin (Homo sapiens)
pKi: −log10 of the molar value.
Class fulfilled: pKi at least 5. Class not fulfilled: pKi below 5.

Worked examples follow.
Input line: Check the entry Cc1cc(C)cc(CNC(=O)c2cc3c(C)cccc3n2Cc2cccc(C(=N)N)c2)c1 : does pKi equal or exceed 5?
Output line: fulfilled

Input line: Next: Cc1cccc2c1cc(C(=O)NCc1nccc3ccccc13)n2Cc1cccc(C(=N)N)c1
Output line: fulfilled

Input line: Then what about the compound C[n+]1ccc(CNC(=O)c2cc3cc(N)ccc3n2Cc2cccc(C(=N)N)c2)cc1 ?
Output line: not fulfilled

Input line: What about N=C(N)c1cccc(Cn2c(C(=O)NCc3nccc4ccccc34)cc3c(O)cccc32)c1 ?
Output line: fulfilled

Input line: Similarly, Cc1cccc2c1cc(C(=O)NCc1cccc(C(=N)N)c1)n2Cc1cccc(C(=N)N)c1 ?
Output line: fulfilled

Could you now consider this next compound?
Input line: pKi >= 5 for N=C(N)c1ccc(CNC(=O)c2cc3cc(N)ccc3n2Cc2cccc(C(=N)N)c2)cc1 ?
Output line: fulfilled

----------
Observed pKi, system UniProtKB P00742.
Units for pKi: none; it is -log10 of a concentration expressed in mol/L.

Input line: Could you share what pKi was measured for C[n+]1ccc(CNC(=O)c2cc3ccccc3n2Cc2cccc(C(=N)N)c2)cc1 , tested on UniProtKB P00742?
Output line: 6.82

Input line: Try N=C(N)c1cccc(Cn2c(C(=O)NCc3cc(F)cc(C(F)(F)F)c3)cc3c(O)cccc32)c1 next.
Output line: 7.41

Input line: Next up: C[n+]1cccc(CC(NC(=O)c2cc3ccccc3n2Cc2cccc(C(=N)N)c2)C(N)=O)c1 (centres undefined)
Output line: 5.41

Input line: Param item: N=C(N)c1ccc(CNC(=O)c2cc3cc(N)ccc3n2Cc2cccc(C(=N)N)c2)cc1
Output line: 7.05

Input line: How about this compound: N=C(N)c1cccc(Cn2c(C(=O)NCc3cc(Cl)cc(Cl)c3Cl)cc3c(O)cccc32)c1
Output line: 7.00

Input line: Again, but for N=C(N)c1cccc(Cn2c(C(=O)NCc3cc(F)cc(F)c3)cc3c(O)cccc32)c1
Output line: 6.72

Further cases:
Input line: pKi of N=C(N)c1cccc(Cn2c(C(=O)NCc3cccc4ccccc34)cc3c(O)cccc32)c1 on UniProtKB P00742?
Output line: 7.17

Input line: Also C[N+](C)(C)c1ccc(CNC(=O)c2cn(Cc3cccc(C(=N)N)c3)c3ccccc23)cc1 , if possible.
Output line: 5.74

Input line: Would you mind doing C=CC[N+](C)(C)c1ccc(CNC(=O)c2cc3cc(F)ccc3n2Cc2cccc(C(=N)N)c2)cc1 as well?
Output line: 6.85
